Here, each record is paired with measured half-life data.
MEASUREMENT_NOTES: Half life in rat at 0.5 mg/kg, iv
Type: ADME, organism-based
TEST_CONDITIONS: in vivo
Use min as the unit, but write only the number.

Here are 3 molecules together with their reported answers.
C[C@H]1CN(c2nc3ccc(C(F)(F)F)cc3s2)CCN1CCOc1cc(CC(=O)O)ccc1Cl; 84
CC[C@H]1CN(c2nc3ccc(C(F)(F)F)cc3s2)CCN1CCOc1cc(CC(=O)O)ccc1Cl; 162
Cc1cc(CC(=O)O)cc(CN2CCN(c3nc4ccc(C(F)(F)F)cc4s3)[C@@H](C(C)C)C2)c1; 570

# ---- query molecule ----
Which half-life reading was recorded for the molecule Cc1cc(CC(=O)O)cc(CN2CCN(c3nc4ccc(C(F)(F)F)cc4s3)[C@H](CC(C)C)C2)c1 ?
402

* * *

Species: Mus musculus
MEASUREMENT_NOTES: Selectivity ratio of EC50 for agonist activity at Gal4-fused mouse PPAR-gamma ligand binding domain expressed in CHO-K1 cells to EC50 for agonist activity at Gal4-fused mouse PPAR-delta ligand binding domain expressed in CHO-K1 cells
Type: cell-based
Here, each record is paired with measured Ratio EC50 data.
Returns: the value as a bare number; no unit string appended.

Here are 3 compounds together with their reported answers.
Cc1cc(CC(=O)O)cc(CN2CCN(c3nc4ccc(C(F)(F)F)cc4s3)[C@H](C)C2)c1; 74
CC(C)C[C@H]1CN(c2nc3ccc(Cl)cc3s2)CCC1CCOc1cc(CC(=O)O)ccc1Cl (some centres undefined); 11
Cc1cc(CC(=O)O)cc(CN2CCN(c3nc4ccc(C(F)(F)F)cc4s3)[C@@H](C)C2)c1; 69

Which Ratio EC50 reading was recorded for the compound Cc1ccc(CC(=O)O)cc1OCCC1CCN(c2nc3ccc(Cl)cc3s2)CC1 ?
10

* * *

EXPERIMENTAL_SYSTEM: Peroxisome proliferator-activated receptor gamma (Mus musculus)
Sequence (P37238 whole entry, the tested form may be a part): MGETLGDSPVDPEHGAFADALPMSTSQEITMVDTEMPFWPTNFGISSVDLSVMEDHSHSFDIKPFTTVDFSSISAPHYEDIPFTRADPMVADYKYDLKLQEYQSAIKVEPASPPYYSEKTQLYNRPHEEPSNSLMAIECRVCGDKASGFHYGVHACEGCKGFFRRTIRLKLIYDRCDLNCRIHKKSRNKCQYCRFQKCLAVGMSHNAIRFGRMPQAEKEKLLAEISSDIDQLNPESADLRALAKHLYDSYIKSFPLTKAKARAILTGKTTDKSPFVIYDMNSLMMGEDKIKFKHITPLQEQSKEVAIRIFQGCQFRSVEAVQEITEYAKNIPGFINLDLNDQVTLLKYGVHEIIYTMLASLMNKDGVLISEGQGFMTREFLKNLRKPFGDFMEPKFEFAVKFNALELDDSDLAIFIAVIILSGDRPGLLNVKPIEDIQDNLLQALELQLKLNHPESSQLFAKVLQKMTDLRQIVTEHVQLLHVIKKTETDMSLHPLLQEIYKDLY
MEASUREMENT_NOTES: Agonist activity at Gal4-fused mouse PPAR-gamma ligand binding domain expressed in CHO-K1 cells assessed as receptor transactivation incubated for 24 to 48 hrs by luciferase reporter gene assay
Here, each record is paired with measured EC50 data.
Use nM as the unit, but write only the number.

Here are 3 compounds together with their reported answers.
C[C@H]1CN(CCOc2cc(CC(=O)O)ccc2Cl)CCN1c1nc2ccc(Cl)cc2s1; 150
Cc1cc(CC(=O)O)cc(CN2CCN(c3nc4ccc(C(F)(F)F)cc4s3)[C@H](C(C)C)C2)c1; 230
Cc1cc(CC(=O)O)cc(CN2CCN(c3nc4ccc(C(F)(F)F)cc4s3)[C@@H](C)C2)c1; 2700

Which EC50 reading was recorded for the compound CC[C@H]1CN(c2nc3ccc(C(F)(F)F)cc3s2)CCN1CCOc1cc(CC(=O)O)ccc1Cl ?
240

Another compound: Cc1cc(CC(=O)O)cc(CN2CCN(c3nc4ccc(C(F)(F)F)cc4s3)[C@H](C)C2)c1
1800

Another compound: CC[C@H]1CN(c2nc3ccc(Cl)cc3s2)CCC1CCOc1cc(CC(=O)O)ccc1Cl (some centres undefined)
390

Another compound: CC1CN(c2nc3ccc(Cl)cc3s2)CCC1CCOc1cc(CC(=O)O)ccc1Cl (centres undefined)
1000

Another compound: C[C@@H]1CN(CCOc2cc(CC(=O)O)ccc2Cl)CCN1c1nc2ccc(Cl)cc2s1
4.1

Another compound: C[C@H]1CN(c2nc3ccc(C(F)(F)F)cc3s2)CCN1CCOc1cc(CC(=O)O)ccc1Cl
240

Another compound: CC[C@@H]1CN(Cc2cc(C)cc(CC(=O)O)c2)CCN1c1nc2ccc(C(F)(F)F)cc2s1
40

Another compound: CC[C@H]1CN(Cc2cc(C)cc(CC(=O)O)c2)CCN1c1nc2ccc(C(F)(F)F)cc2s1
670

Another compound: Cc1cc(CC(=O)O)cc(CN2CCN(c3nc4ccc(C(F)(F)F)cc4s3)CC2)c1
3300

Another compound: Cc1ccc(CC(=O)O)cc1OCCN1CCN(c2nc3ccc(Cl)cc3s2)C[C@@H]1C
500

Another compound: CC(C)C[C@H]1CN(c2nc3ccc(Cl)cc3s2)CCC1CCOc1cc(CC(=O)O)ccc1Cl (some centres undefined)
660

* * *

Tested on: Mus musculus
MEASUREMENT_NOTES: Antihypercholesterolemic activity against hApoB100/hCETP-dTg hypercholesterolemic mouse model assessed as serum total cholesterol level at 3 mg/kg, po administered once daily for 8 days
Type: functional
TEST_CONDITIONS: time 8 day
Here, each record is paired with measured Activity data.
Use % as the unit, but write only the number.

Cc1cc(CC(=O)O)cc(CN2CCN(c3nc4ccc(C(F)(F)F)cc4s3)[C@@H](C(C)C)C2)c1; 72
CC[C@H]1CN(c2nc3ccc(C(F)(F)F)cc3s2)CCN1CCOc1cc(CC(=O)O)ccc1Cl; 94
C[C@H]1CN(c2nc3ccc(C(F)(F)F)cc3s2)CCN1CCOc1cc(CC(=O)O)ccc1Cl; 76

Which Activity reading was recorded for the molecule Cc1cc(CC(=O)O)cc(CN2CCN(c3nc4ccc(C(F)(F)F)cc4s3)[C@H](CC(C)C)C2)c1 ?
83

* * *

EXPERIMENTAL_SYSTEM: Peroxisome proliferator-activated receptor delta (Mus musculus) (UniProt P35396)
Sequence (whole entry): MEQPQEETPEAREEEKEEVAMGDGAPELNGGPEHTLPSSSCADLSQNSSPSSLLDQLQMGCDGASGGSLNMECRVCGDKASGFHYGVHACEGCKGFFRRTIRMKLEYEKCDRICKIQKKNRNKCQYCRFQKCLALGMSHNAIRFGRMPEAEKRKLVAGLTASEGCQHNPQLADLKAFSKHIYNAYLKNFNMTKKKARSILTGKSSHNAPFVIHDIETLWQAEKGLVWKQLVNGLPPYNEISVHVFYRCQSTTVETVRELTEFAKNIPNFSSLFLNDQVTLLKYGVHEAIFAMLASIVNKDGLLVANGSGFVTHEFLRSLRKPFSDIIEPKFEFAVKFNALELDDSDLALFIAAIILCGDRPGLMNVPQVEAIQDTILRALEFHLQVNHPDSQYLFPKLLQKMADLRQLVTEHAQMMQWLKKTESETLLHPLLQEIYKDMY
MEASUREMENT_NOTES: Agonist activity at Gal4-fused mouse PPAR-delta ligand binding domain expressed in CHO-K1 cells assessed as receptor transactivation incubated for 24 to 48 hrs by luciferase reporter gene assay relative to control
Type: cell-based
TEST_CONDITIONS: time lower 24.0 hrs, time upper […]
ASSAY_METRIC: Emax (%)
Use % as the unit, but write only the number.

Cc1ccc(CC(=O)O)cc1OCCC1CCN(c2nc3ccc(Cl)cc3s2)CC1; 20
C[C@H]1CN(c2nc3ccc(C(F)(F)F)cc3s2)CCN1CCOc1cc(CC(=O)O)ccc1Cl; 34
Cc1cc(CC(=O)O)cc(CN2CCN(c3nc4ccc(C(F)(F)F)cc4s3)C[C@H]2C)c1; 22.1
Cc1cc(CC(=O)O)cc(CN2CCN(c3nc4ccc(C(F)(F)F)cc4s3)CC2)c1; 19
Cc1cc(CC(=O)O)cc(CN2CCN(c3nc4ccc(C(F)(F)F)cc4s3)[C@@H](C)C2)c1; 20.4
Cc1cc(CC(=O)O)cc(CN2CCN(c3nc4ccc(C(F)(F)F)cc4s3)[C@H](C)C2)c1; 20.8
CC1CN(c2nc3ccc(Cl)cc3s2)CCC1CCOc1cc(CC(=O)O)ccc1Cl (centres undefined); 28.7
Cc1ccc(CC(=O)O)cc1OCCN1CCN(c2nc3ccc(Cl)cc3s2)C[C@@H]1C; 21.7

# ---- query molecule ----
Which Emax reading was recorded for the molecule Cc1cc(CC(=O)O)cc(CN2CCN(c3nc4ccc(C(F)(F)F)cc4s3)[C@@H](CC(C)C)C2)c1 ?
17.9

* * *

EXPERIMENTAL_SYSTEM: Peroxisome proliferator-activated receptor alpha (Mus musculus) (UniProt P23204)
Sequence (whole entry): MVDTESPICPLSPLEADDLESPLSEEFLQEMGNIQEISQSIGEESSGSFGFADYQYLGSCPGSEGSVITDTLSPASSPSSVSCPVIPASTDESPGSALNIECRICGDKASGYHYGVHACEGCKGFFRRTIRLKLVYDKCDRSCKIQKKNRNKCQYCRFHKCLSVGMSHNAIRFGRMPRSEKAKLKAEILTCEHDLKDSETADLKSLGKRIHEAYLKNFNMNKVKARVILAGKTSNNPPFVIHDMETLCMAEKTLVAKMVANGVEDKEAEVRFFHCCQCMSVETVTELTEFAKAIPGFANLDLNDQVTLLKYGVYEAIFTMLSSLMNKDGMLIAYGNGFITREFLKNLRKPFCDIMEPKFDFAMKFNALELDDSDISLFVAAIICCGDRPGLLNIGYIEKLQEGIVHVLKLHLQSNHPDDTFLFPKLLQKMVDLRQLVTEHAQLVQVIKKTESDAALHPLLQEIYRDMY
MEASUREMENT_NOTES: Agonist activity at Gal4-fused mouse PPAR-alpha ligand binding domain expressed in CHO-K1 cells assessed as receptor transactivation incubated for 24 to 48 hrs by luciferase reporter gene assay relative to control
Format: cell-based
TEST_CONDITIONS: time lower 24.0 hrs, time upper […]
ASSAY_METRIC: Emax (%)
Use % as the unit, but write only the number.

Here are 3 molecules together with their reported answers.
Cc1cc(CC(=O)O)cc(CN2CCN(c3nc4ccc(C(F)(F)F)cc4s3)[C@@H](C)C2)c1; 9
Cc1cc(CC(=O)O)cc(CN2CCN(c3nc4ccc(C(F)(F)F)cc4s3)C[C@H]2C)c1; 19
Cc1cc(CC(=O)O)cc(CN2CCN(c3nc4ccc(C(F)(F)F)cc4s3)CC2)c1; 6.6

Which Emax reading was recorded for the molecule Cc1ccc(CC(=O)O)cc1OCCC1CCN(c2nc3ccc(Cl)cc3s2)CC1 ?
15.5

meta.source: ChEMBL document CHEMBL5260859
